Recorded melting point for the following compounds

{"compound": "COc1cccc(C=NNC(=O)COC(=O)C2(C)CCCC3(C)c4ccc(C(C)C)cc4CCC23)c1 (stereo not shown)", "melting point": "136.7 to 137.9 °C"}
{"compound": "COc1ccccc1C=NNC(=O)COC(=O)C1(C)CCCC2(C)c3ccc(C(C)C)cc3CCC12 (stereo not shown)", "melting point": "190.3 to 191.8 °C"}
{"compound": "CC(C)c1ccc2c(c1)CCC1C(C)(C(=O)OCC(=O)NN=Cc3ccccc3O)CCCC21C (stereo not shown)", "melting point": "214.9 to 215.6 °C"}

What value of melting point has been reported for the following compound? CC(C)c1ccc2c(c1)CCC1C(C)(C(=O)OCC(=O)NN=Cc3ccccc3)CCCC21C (stereo not shown)
155.1 to 156.7 °C
